subject.of.test: ACAT1 C196 (P24752) (Homo sapiens)
experiment: Competitive isoTOP-ABPP, cell lysates
Type: binding
measurement.context: 500 μm in-vitro ramos_231
Would you kindly list isoTOP-ABPP ratio (reactivity profile), P24752_C196 for each of these compounds?
Answers are plain numbers.

{"compound": "COc1ccccc1OCCNC(=O)CCl [compound 28]", "endpoint.result": 1.0}
{"compound": "O=C(CCl)N1CCN(CC(=O)N2CCOCC2)CC1 [compound 29]", "endpoint.result": 1.3}
{"compound": "O=C(CCl)N1CCOCC1 [compound 22]", "endpoint.result": 1.4}
{"compound": "O=C(CCl)N1CCC(C(O)(c2ccccc2)c2ccccc2)CC1 [compound 20]", "endpoint.result": 3.7}
{"compound": "CC(Cl)C(=O)Nc1cc(C(F)(F)F)cc(C(F)(F)F)c1 (stereo not drawn) [compound 25]", "endpoint.result": 0.9}

Alright, here's another compound for you.
Prompt line: Reported isoTOP-ABPP ratio (reactivity profile), P24752_C196 for O=C(CCl)NC12CC3CC(CC(C3)C1)C2 [compound 21] : what is it?
Response line: 1.0

====

subject.of.test: cysteines in MDA-MB-231 and Ramos cells (Homo sapiens)
Sequence (Q9NXV6 1-580): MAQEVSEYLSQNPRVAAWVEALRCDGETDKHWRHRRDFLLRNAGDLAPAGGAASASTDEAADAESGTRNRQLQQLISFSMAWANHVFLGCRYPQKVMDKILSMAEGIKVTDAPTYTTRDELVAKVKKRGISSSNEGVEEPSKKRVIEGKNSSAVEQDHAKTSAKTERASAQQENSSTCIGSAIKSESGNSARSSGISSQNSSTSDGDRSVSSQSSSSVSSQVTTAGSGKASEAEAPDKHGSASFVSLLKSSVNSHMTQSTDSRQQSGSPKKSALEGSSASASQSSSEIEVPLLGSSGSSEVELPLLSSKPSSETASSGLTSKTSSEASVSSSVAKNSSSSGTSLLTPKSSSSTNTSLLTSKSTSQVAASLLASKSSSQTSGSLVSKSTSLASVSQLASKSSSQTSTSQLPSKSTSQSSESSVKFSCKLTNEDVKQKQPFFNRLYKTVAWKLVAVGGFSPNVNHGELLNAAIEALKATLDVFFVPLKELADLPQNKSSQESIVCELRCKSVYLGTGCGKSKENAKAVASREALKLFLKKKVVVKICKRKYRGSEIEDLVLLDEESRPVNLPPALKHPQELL
experiment: Competitive isoTOP-ABPP in situ (fragment-treated cells)
Type: cell-based
measurement.context: 200 μM, insitu, 231
value.kind: isoTOP-ABPP ratio Q9NXV6_C516
One number for each entry.

{"compound": "O=C(CCl)N1CCN(S(=O)(=O)c2ccccc2F)CC1 [compound 10]", "isoTOP-ABPP ratio Q9NXV6_C516": 7.7}
{"compound": "Cc1ccc(C=C(C#N)C(=O)NCCN2CCOCC2)cc1 [compound 41]", "isoTOP-ABPP ratio Q9NXV6_C516": 0.9}
{"compound": "O=C(CCl)NC12CC3CC(CC(C3)C1)C2 [compound 21]", "isoTOP-ABPP ratio Q9NXV6_C516": 0.8}
{"compound": "O=C(CCl)NCCc1c[nH]c2ccccc12 [compound 13]", "isoTOP-ABPP ratio Q9NXV6_C516": 2.4}

# batch size: 3; output isoTOP-ABPP ratio Q9NXV6_C516 per entry
1. CC(C)CCOCCNC(=O)CCl [compound 27]
2. C=CC(=O)Nc1cc(F)c(N2CCN(C(=O)OC(C)(C)C)CC2)c(F)c1 [compound 38]
3. O=C(CCl)NC(=O)NC12CC3CC(CC(C3)C1)C2 [compound 12]

Response line:
1.4
1.8
3.3

====

Would you kindly list isoTOP-ABPP ratio O14879_C343 for each of these compounds?
subject.of.test: cysteines in MDA-MB-231 and Ramos cells (Homo sapiens, UniProt O14879)
Sequence (O14879 whole entry, the tested form may be a part): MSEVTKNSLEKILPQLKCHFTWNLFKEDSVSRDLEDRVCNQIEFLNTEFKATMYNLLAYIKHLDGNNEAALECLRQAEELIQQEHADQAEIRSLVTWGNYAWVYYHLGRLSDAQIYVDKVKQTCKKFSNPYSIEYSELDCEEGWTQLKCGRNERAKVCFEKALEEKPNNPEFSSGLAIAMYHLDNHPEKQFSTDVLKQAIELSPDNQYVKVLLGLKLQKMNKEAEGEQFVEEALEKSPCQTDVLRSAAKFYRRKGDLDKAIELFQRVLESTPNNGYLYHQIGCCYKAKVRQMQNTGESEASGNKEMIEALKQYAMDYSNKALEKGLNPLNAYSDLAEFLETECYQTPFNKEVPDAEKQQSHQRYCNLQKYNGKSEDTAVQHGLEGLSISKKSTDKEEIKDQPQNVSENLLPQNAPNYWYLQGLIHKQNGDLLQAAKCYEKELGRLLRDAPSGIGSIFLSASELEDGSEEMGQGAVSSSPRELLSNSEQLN
experiment: Competitive isoTOP-ABPP in situ (fragment-treated cells)
Format: cell-based
measurement.context: 200 μM, insitu, 231
One number for each entry.

Example compounds with recorded isoTOP-ABPP ratio O14879_C343:
{"compound": "CC1CCc2ccccc2N1C(=O)CCl (stereo not shown) [compound 45]", "isoTOP-ABPP ratio O14879_C343": 4.0}
{"compound": "O=C(CCl)NCCc1c[nH]c2ccccc12 [compound 13]", "isoTOP-ABPP ratio O14879_C343": 1.0}
{"compound": "O=C(CCl)NC12CC3CC(CC(C3)C1)C2 [compound 21]", "isoTOP-ABPP ratio O14879_C343": 0.8}
{"compound": "COc1ccccc1OCCNC(=O)CCl [compound 28]", "isoTOP-ABPP ratio O14879_C343": 0.7}
{"compound": "O=C(CCl)Nc1cccc2ncccc12 [compound 51]", "isoTOP-ABPP ratio O14879_C343": 1.3}

# batch size: 5; output isoTOP-ABPP ratio O14879_C343 per entry
1. O=C(CCl)N1CCN(S(=O)(=O)c2ccccc2F)CC1 [compound 10]
2. Cc1ccc(C=C(C#N)C(=O)NCCN2CCOCC2)cc1 [compound 41]
3. CC(C)CCOCCNC(=O)CCl [compound 27]
4. O=C(CCl)NC(=O)NC12CC3CC(CC(C3)C1)C2 [compound 12]
5. C=CC(=O)N(Cc1cccnc1)c1cc(C(F)(F)F)cc(C(F)(F)F)c1 [compound 31]

Response line:
1: 4.9; 2: 0.3; 3: 0.4; 4: 3.5; 5: 0.9

====

subject.of.test: UBE2S C118 (Q16763) (Homo sapiens)
Sequence (Q16763 whole entry): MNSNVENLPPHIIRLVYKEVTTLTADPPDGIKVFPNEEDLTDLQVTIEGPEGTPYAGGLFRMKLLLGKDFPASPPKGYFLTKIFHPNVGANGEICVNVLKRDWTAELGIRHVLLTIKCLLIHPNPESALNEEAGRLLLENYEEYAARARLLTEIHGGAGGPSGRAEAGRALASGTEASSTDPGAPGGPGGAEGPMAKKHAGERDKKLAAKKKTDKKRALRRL
experiment: Competitive isoTOP-ABPP, cell lysates
Format: binding
measurement.context: 500 μm, in-vitro_ramos_231
value.kind: isoTOP-ABPP reactivity profile ratio, Q16763_C118
Answers are plain numbers.

Example compounds with recorded isoTOP-ABPP reactivity profile ratio, Q16763_C118:
{"compound": "C=CC(=O)N1CCC(Cc2ccccc2)CC1", "subject.of.test": "UBE2S C118 (Q16763) (Homo sapiens)", "endpoint.result": 1.0}
{"compound": "O=C(CCl)Nc1ccc(-c2ccccc2)cc1", "subject.of.test": "UBE2S C118 (Q16763) (Homo sapiens)", "endpoint.result": 1.2}
{"compound": "O=C(CCl)NC1C(O)OC(CO)C(O)C1O (mixture of isomers)", "subject.of.test": "UBE2S C118 (Q16763) (Homo sapiens)", "endpoint.result": 0.8}
{"compound": "O=C(CCl)N1CCc2cc(Br)ccc21", "subject.of.test": "UBE2S C118 (Q16763) (Homo sapiens)", "endpoint.result": 0.8}

Alright, here's another compound for you.
Prompt line: isoTOP-ABPP reactivity profile ratio, Q16763_C118 of C=CC(=O)N(c1ccccc1)C1CCCCC1 on UBE2S C118 (Q16763) (Homo sapiens)?
Response line: 1.0

====

subject.of.test: cysteines in MDA-MB-231 and Ramos cells (Homo sapiens)
experiment: Competitive isoTOP-ABPP in situ (fragment-treated cells)
Format: cell-based
measurement.context: 200 μM, insitu, 231
Mark each entry TRUE if its isoTOP-ABPP ratio Q13418_C346 sits below 0.6, and FALSE for all others.

Example cases with answers are listed next.
{"molecule": "O=C(CCl)NCCc1c[nH]c2ccccc12", "subject.of.test": "cysteines in MDA-MB-231 and Ramos cells (Homo sapiens)", "assigned.class": "FALSE"}
{"molecule": "O=C(CCl)Nc1cccc2ncccc12", "subject.of.test": "cysteines in MDA-MB-231 and Ramos cells (Homo sapiens)", "assigned.class": "FALSE"}
{"molecule": "C=CC(=O)Nc1cc(F)c(N2CCN(C(=O)OC(C)(C)C)CC2)c(F)c1", "subject.of.test": "cysteines in MDA-MB-231 and Ramos cells (Homo sapiens)", "assigned.class": "FALSE"}
{"molecule": "O=C(CCl)N1CCN(S(=O)(=O)c2ccccc2F)CC1", "subject.of.test": "cysteines in MDA-MB-231 and Ramos cells (Homo sapiens)", "assigned.class": "FALSE"}

Pending compound:
Prompt line: For this compound, is isoTOP-ABPP ratio Q13418_C346 lower than 0.6? O=C(CCl)NC12CC3CC(CC(C3)C1)C2
Response line: TRUE

====

subject.of.test: cysteines in MDA-MB-231 and Ramos cells (Homo sapiens, UniProt P24752)
Sequence (P24752 34-427): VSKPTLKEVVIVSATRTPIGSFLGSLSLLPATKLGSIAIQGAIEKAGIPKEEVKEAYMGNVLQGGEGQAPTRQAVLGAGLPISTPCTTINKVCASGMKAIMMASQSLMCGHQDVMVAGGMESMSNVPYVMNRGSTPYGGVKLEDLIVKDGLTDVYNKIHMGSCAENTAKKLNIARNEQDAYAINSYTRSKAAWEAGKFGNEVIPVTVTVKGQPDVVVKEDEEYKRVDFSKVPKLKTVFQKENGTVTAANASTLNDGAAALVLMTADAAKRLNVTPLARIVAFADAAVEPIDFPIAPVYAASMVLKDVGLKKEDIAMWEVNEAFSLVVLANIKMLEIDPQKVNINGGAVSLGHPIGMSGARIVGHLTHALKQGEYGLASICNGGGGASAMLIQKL
experiment: Competitive isoTOP-ABPP in situ (fragment-treated cells)
Type: cell-based
measurement.context: 200 μM, insitu, 231
value.kind: isoTOP-ABPP ratio P24752_C119
Answers are plain numbers.

Example compounds with recorded isoTOP-ABPP ratio P24752_C119:
{"compound": "O=C(CCl)Nc1cccc2ncccc12", "subject.of.test": "cysteines in MDA-MB-231 and Ramos cells (Homo sapiens, UniProt P24752)", "endpoint.result": 0.7}
{"compound": "Cc1ccc(C=C(C#N)C(=O)NCCN2CCOCC2)cc1", "subject.of.test": "cysteines in MDA-MB-231 and Ramos cells (Homo sapiens, UniProt P24752)", "endpoint.result": 1.9}
{"compound": "C=CC(=O)Nc1cc(F)c(N2CCN(C(=O)OC(C)(C)C)CC2)c(F)c1", "subject.of.test": "cysteines in MDA-MB-231 and Ramos cells (Homo sapiens, UniProt P24752)", "endpoint.result": 1.2}

# batch size: 3; output isoTOP-ABPP ratio P24752_C119 per entry
1. COc1ccccc1OCCNC(=O)CCl
2. CC1CCc2ccccc2N1C(=O)CCl (stereo not drawn)
3. O=C(CCl)NCCc1c[nH]c2ccccc12

Response line:
1. 1.0
2. 12.4
3. 2.1
